Listing: TGI of selected compounds
Test system: HOP-92 NSCLC
assay_details: NCI tumour cell line growth inhibition, 48 h
Write the number in µM without appending the unit.

Examples from the recorded data:
INSERT INTO measurements (structure_notation, measure_name, unit_spec, endpoint_result) VALUES
  ('COc1ccc2nc3cc([N+](=O)[O-])ccc3c(NNc3ccc(Cl)cc3)c2c1', 'TGI', 'µM', 57.9),
  ('COc1ccc(/C(Cl)=C(\C=O)c2ccc(Br)cc2)cc1OC', 'TGI', 'µM', 72.6);

Look at this compound and give its reported TGI. `O=[N+]([O-])/C(Cl)=C(\Nc1ccccc1)C(Cl)=C(Cl)Cl`
69.5

Field entry: `C=CCNC(=O)/C(Cc1cc(Br)c(OC)c(Br)c1O)=N\O`
24.1

Thanks! And `NC(N)=N/N=C/c1cccc(Cl)c1Cl` ?
5.88

---

Tested on: SW-620 colon
assay_details: NCI tumour cell line growth inhibition, 48 h
This section presents molecules with their documented TGI values.

Past entries and their recorded results:
INSERT INTO assay_data (molecule, measure_name, endpoint_result) VALUES
  ('Cc1ccc(C)c(/C(=N\N=C(N)N)C2CC2)c1', 'TGI', '> 100 µM'),
  ('COc1ccc(-c2onc(-c3c(C)cc(C)cc3C)c2C2=NCCCN2)cc1', 'TGI', '> 100 µM'),
  ('CC1=CC2(O)OC3(CC2=C(C)C)C(C)CCC13 (stereo unspecified)', 'TGI', '> 100 µM'),
  ('CC(F)(F)c1cc(F)ccc1-c1sc2cc(O)ccc2c1Oc1ccc(/C=C/C(=O)O)cc1', 'TGI', '24.9 µM'),
  ('CCCC(=O)NC(c1ccc2c(c1)OCO2)c1ccc2cccnc2c1O (stereo unspecified)', 'TGI', '> 100 µM'),
  ('CN(C)[C@@H]1C(=O)C(C(=O)NCNCCCC(=O)O)=C(O)[C@@]2(O)C(=O)C3=C(O)c4c(O)cccc4[C@@](C)(O)[C@H]3C[C@@H]12', 'TGI', '> 100 µM'),
  ('COc1ccc(-n2c3c(c4cc(O)ccc42)C(=O)c2ccccc2C3=O)cc1', 'TGI', '> 100 µM'),
  ('C[C@]12CC(c3ccccc3O1)C(C#N)C(=O)N2 (stereo partly specified)', 'TGI', '> 100 µM'),
  ('CC1(C)CCCCCCCCCC(C)(CCCO)C1=O (stereo unspecified)', 'TGI', '34.1 µM'),
  ('O=C(CCc1ccccc1)On1nnc2ccccc2c1=O', 'TGI', '> 100 µM');

TGI lookup needed for COC1(OC)CC2C(=O)N(Cc3ccccc3)C1CC2S(=O)(=O)c1ccccc1 (stereo unspecified) , thanks.
> 100 µM

Same question for `O=C(O)c1ccc(N=Nc2cc(S(=O)(=O)O)c3cccnc3c2O)cc1` please.
> 100 µM

# iterate: `O=C(Nc1cccc(C(F)(F)F)c1)c1cccc(NC2=C(Cl)C(=O)N(Cc3ccccc3)C2=O)c1`
> 100 µM

Continue with COC1=CC(C2c3cc4c(cc3[C@@H](Nc3ccc([N+](=O)[O-])cc3)C3COC(=O)[C@H]23)OCO4)=CC(=O)C1=O (stereo partly specified)
> 66.4 µM

Please answer likewise for `COc1cc(-c2nn(C(=O)NS(=O)(=O)c3ccc(C)cc3)cc2-c2ccncc2)ccc1Cl`
> 100 µM

What would you report for `C=C1CC2(OC1=O)c1ccccc1C=Cc1ccccc12` ?
4.54 µM

What would you report for `COc1ccc2nc3cc([N+](=O)[O-])ccc3c(NNc3ccc(Cl)cc3)c2c1` ?
> 76.3 µM

---

System: RXF-631 renal
assay_details: NCI tumour cell line growth inhibition, 48 h
Listed here are compounds together with their documented TGI.

INSERT INTO assay_data (compound, endpoint_result) VALUES
  ('CC(C)CC(CNC(Cc1ccc(Cl)cc1)C(N)=O)NC(=O)C(Cc1cnc[nH]1)NC(=O)CNC(=O)C(NC(=O)C(C)NC(=O)C(Cc1c[nH]c2ccccc12)NC(=O)C(CCC(=O)O)NC(=O)C(N)Cc1ccccc1)C(C)C (centres undefined)', '> 133 µM'),
  ('CC(C)(C)C1CCC2(CC1)CCN(CCCN1CCOCC1)CC2', '31 µM'),
  ('CC(=O)OC1OC2C(NC(=O)OC(C)(C)C)C1CC2(OCc1ccccc1)OCc1ccccc1 (centres undefined)', '> 100 µM');

Moving on to the next compound.
Give the measured TGI of `Cc1[nH]c(=O)nc(CC(O)(c2ccccc2)c2ccccc2)c1-c1ccccc1` .
> 100 µM

---

System: RPMI-8226 leukemia
assay_details: NCI tumour cell line growth inhibition, 48 h
Entries and their measured TGI follow.

May I ask what TGI has been recorded for `COc1ccc(/C=C/c2nc(=S)[nH][nH]2)cc1` ?
> 100 µM

Proceed to O=C1C(Cl)C(c2ccc(Cl)cc2)N1n1cnc2ccccc2c1=O (stereo not given)
> 100 µM

Also, CC(NC(=O)/C(C#N)=C/c1ccc2[nH]ccc2c1)c1ccccc1 (stereo not given) please.
> 73.1 µM

// query: `CO[C@@](c1ccccc1)(c1nc(C#N)c(N)o1)C(F)(F)F`
> 100 µM

Next up: `CCOC(=O)N1C/C(=C/c2ccc(OC)cc2)C(=O)/C(=C/c2ccc(OC)cc2)C1`
1.6 µM

Please give the result for COC(=O)/C(C#N)=C1\NC(=O)CC(c2ccccc2)C1C#N (stereo not given) too.
> 100 µM

Next compound: `Cc1c2ncccc2nc2[nH]c3ccc(OCCN(C)C)cc3c12`
5.91 µM

What do you get for `C[C@@H]1CC[C@H]2C(COC/C=C/COCC3=C(C(F)(F)F)O[C@@H]4O[C@@]5(C)CC[C@H]6[C@H](C)CC[C@@H]3[C@@]46OO5)=C(C(F)(F)F)O[C@@H]3O[C@@]4(C)CC[C@@H]1[C@]32OO4` ?
> 100 µM

Proceed to C#CCCOC1(OC)N=NC(C)(C)O1 (stereo not given)
> 100 µM

Next entry: COc1ccc(C2CCC(Cl)(OC)CC2C=O)cc1 (stereo not given)
> 100 µM

---

System: KM12 colon
assay_details: NCI tumour cell line growth inhibition, 48 h
measure_name: log10(TGI) (log10 of the value in µM)
Lab note - TGI converted to log10 from values in µM.

Some molecules with known log10(TGI) results, for comparison:
INSERT INTO assay_data (molecule, assayed_system, measure_name, endpoint_result) VALUES
  ('Cc1[nH]nc2c1N=C(c1ccccc1F)c1cc(C#N)ccc1N2', 'KM12 colon', 'log10(TGI)', 0.81),
  ('Cc1cc(=O)[nH]c(NN2C(Cl)C(=O)C2c2cccc([N+](=O)[O-])c2)n1 (configuration not stated)', 'KM12 colon', 'log10(TGI)', 1.91),
  ('c1ccc2cc(OCC3CO3)c(OCC3CO3)cc2c1 (configuration not stated)', 'KM12 colon', 'log10(TGI)', 1.43),
  ('COc1cc2ccc1-c1cc(ccc1O)CC1c3cc4c(cc3CCN1C)Oc1c(OC)cc3c(c1O4)C(C2)N(C)CC3 (configuration not stated)', 'KM12 colon', 'log10(TGI)', 0.52),
  ('Cc1ccc(C2SCc3nc4ccc(C(=O)c5ccccc5)cc4n32)cc1 (configuration not stated)', 'KM12 colon', 'log10(TGI)', 1.55);

Lookup: log10(TGI) / KM12 colon / `O=C(c1cc(Br)ccc1O)c1cc(Br)ccc1O`
1.49

Next record, please: `BrC(Br)(Br)c1cnc2ccccc2n1`
0.89

Also `O=C1C(Cl)=C(Nc2cccc(C(F)(F)F)c2)C(=O)N1Cc1ccccc1Cl` ?
1.53

What about this molecule? O=C1c2ccccc2C(=O)c2c(NCCNC(=O)C3CCCN3)ccc(NCCNC(=O)C3CCCN3)c21 (configuration not stated)
1.70

---

System: A498 renal
assay_details: NCI tumour cell line growth inhibition, 48 h
measure_name: TGI (µM)
Expressed in µM, but write only the number.

Item CCOC(=O)C1=C(C)N(C)C(=S)NC1c1cccc(O)c1 (configuration not stated) has what recorded TGI?
84

Thanks! And `CCN(CC)Cc1ccc2cccnc2c1O` ?
33.5

Subsequent entry: `COc1ccc(-n2c3c(c4cc(O)ccc42)C(=O)c2ccccc2C3=O)cc1`
22.5

Cool, now `COc1cc(C)cc2c1C(=O)C(Br)=CC2=O`
34.5

Now the same for `CC(C)C[C@H](NC(=O)CCc1ccccc1)B(O)O`
14

Field entry: `C[C@@]1(c2ncncc2F)NC(=O)c2cc(-c3cn[nH]c3)ccc21`
50.5

Continue with COc1ccccc1CNC(=O)C1c2ccccc2C(=O)N(CC(C)C)C1c1cccs1 (configuration not stated)
51.5

Next molecule up: `CCCCSCc1nc2nc(Cl)c(Cl)nc2[nH]1`
60.6

Next record, please: `COc1cc(-c2nn(C(=O)NS(=O)(=O)c3ccc(C)cc3)cc2-c2ccncc2)ccc1Cl`
39.6

Next: `CCOC(OCC)c1ccc(/C=C/c2cc(OC)c(OC)c(OC)c2)cc1`
45.4

Also, `Cc1c2ncccc2nc2[nH]c3ccc(OCCN(C)C)cc3c12` please.
20
